# System: MABP
# experiment: Drop in mean arterial blood pressure (MABP) after i.v. administration
# Assay type: in vivo, guinea pig
# stated conditions: 20% fall in MABP
Listed compounds paired with reported Dose needed for 20% fall in B.P. (ED20) (A)
measured quantity: Dose needed for 20% fall in B.P. (ED20) (A)

compound	experimental value
COCCOC(=O)c1ccc2c(c1)no[n+]2[O-]	0.22634 mg/kg
O=C(OCc1cccnc1)c1ccc2c(c1)no[n+]2[O-]	0.22716 mg/kg
O=C(OCCN1CCCC1=O)c1ccc2c(c1)no[n+]2[O-]	0.13952 mg/kg
CC1(C)OCC(COC(=O)c2ccc3c(c2)no[n+]3[O-])O1 (racemic)	0.286 mg/kg
